protocolNotes: AUC (0 to 24 hrs) in rat assessed as drug tolerability at 15 mg/kg/day for 2 weeks measured on day 14
Type: ADME, organism-based
Set-up: time < 24 hr, dose 15 mg/kg/day
settings: in vivo
parameter: AUC at 24 h (µM·h)
A number alone suffices; assume µM·h.

Prompt line: Quick one: AUC at 24 h of CCn1c(C(=O)N(C2CC2)C2CC2)cc2c3c(ncn3C)c(Nc3cc(C)n(C)n3)nc21 ?
Response line: 3200

----------
assayedTarget: UniProt O60674
protocolNotes: Inhibition of JAK2 in human SET2 cells assessed as reduction in STAT5 phosphorylation incubated for 2 hrs by Western blot method
Format: cell-based
parameter: IC50

Prompt line: Quick one: IC50 of CCn1c(C(=O)N(C2CC2)C2CC2)cc2c3c(ncn3C)c(Nc3cc(C)n(C)n3)nc21 ?
Response line: 0.08 µM

----------
protocolNotes: Volume of distribution at steady state in cynomolgus monkey at 1 mg/kg, iv and 1 mg/kg, po
Format: ADME, organism-based, Macaca fascicularis
settings: in vivo, read-out: Vdss
parameter: Vd (L/kg)
A number alone suffices; assume L/kg.

Prompt line: Quick one: Vd of CCn1c(C(=O)N(C2CC2)C2CC2)cc2c3c(ncn3C)c(Nc3cc(C)n(C)n3)nc21 ?
Response line: 1.1

----------
assayedTarget: Tyrosine-protein kinase JAK2 (Homo sapiens)
Sequence (O60674 whole entry): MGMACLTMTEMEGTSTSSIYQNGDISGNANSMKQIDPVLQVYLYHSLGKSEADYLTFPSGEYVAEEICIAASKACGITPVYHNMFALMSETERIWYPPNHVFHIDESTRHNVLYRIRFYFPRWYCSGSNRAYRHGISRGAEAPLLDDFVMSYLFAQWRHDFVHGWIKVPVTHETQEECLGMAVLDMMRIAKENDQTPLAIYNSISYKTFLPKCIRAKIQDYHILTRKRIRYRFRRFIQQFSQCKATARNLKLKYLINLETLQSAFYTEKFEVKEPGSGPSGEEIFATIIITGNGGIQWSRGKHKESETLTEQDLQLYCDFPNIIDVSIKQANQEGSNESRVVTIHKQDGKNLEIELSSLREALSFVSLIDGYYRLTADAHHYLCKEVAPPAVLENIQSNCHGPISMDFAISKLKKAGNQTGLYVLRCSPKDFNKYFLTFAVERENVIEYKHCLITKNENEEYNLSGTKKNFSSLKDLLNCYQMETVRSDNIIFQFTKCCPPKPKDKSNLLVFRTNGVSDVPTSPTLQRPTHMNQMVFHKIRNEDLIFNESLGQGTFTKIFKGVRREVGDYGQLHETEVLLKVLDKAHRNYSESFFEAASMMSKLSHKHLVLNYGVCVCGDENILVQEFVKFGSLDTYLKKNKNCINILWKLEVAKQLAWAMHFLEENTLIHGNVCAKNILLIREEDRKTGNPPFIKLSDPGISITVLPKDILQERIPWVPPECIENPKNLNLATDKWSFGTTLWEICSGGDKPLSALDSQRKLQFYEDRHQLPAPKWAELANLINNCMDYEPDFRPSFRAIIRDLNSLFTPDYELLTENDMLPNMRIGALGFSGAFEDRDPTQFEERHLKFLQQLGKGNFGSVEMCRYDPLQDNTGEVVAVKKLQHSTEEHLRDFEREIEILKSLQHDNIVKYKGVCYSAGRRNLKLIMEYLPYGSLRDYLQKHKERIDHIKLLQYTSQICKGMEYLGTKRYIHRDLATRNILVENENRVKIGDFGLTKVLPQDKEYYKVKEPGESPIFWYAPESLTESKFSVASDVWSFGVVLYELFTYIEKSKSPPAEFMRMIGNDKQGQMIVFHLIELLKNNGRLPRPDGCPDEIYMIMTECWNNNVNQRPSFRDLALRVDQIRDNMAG
protocolNotes: Inhibition of recombinant JAK2 (unknown origin) using 5-FAM-KKKKEEIYFFFG-OH substrate and ATP incubated for 180 mins by […] method
parameter: IC50 (nM)
A number alone suffices; assume nM.

Known IC50 results, listed for orientation:
> print(dat)
                                   compound  unitssymbol  resultvalue
1  CCc1nc(Nc2nc3c(cc(C(=O)N(C4CC4)C4CC4)n3CC)c3c2ncn3C)sc1C           nM          1.4
2  CCn1c(C(=O)N(C2CC2)C2CC2)cc2c3c(ncn3C)c(Nc3cc(C)nn3C)nc21           nM          230
3  CCn1c(C(=O)N(C2CC2)C2CC2)cc2c3c(ncn3C)c(Nc3nc(C)c(C(=O)NC)s3)nc21           nM          0.9
4  CCn1c(C(=O)N(C2CC2)C2CC2)cc2c3c(ncn3C)c(Nc3cc(C)[nH]n3)nc21           nM          1.2
5  CCn1c(C(=O)N(C2CC2)C2CC2)cc2c3c(ncn3C)c(Nc3nc(C(=O)NC)c(C)s3)nc21           nM          3.1
6  CCn1c(C(=O)N(C2CC2)C2CC2)cc2c3c(ncn3C)c(Nc3nc(C)c(C(=O)N4CCS(=O)(=O)CC4)s3)nc21           nM          0.7
7  CCn1c(C(=O)N(C2CC2)C2CC2)cc2c3c(ncn3C)c(Nc3nc(C)n(C)n3)nc21           nM           33

Next up:
Prompt line: Quick one: IC50 of CCn1c(C(=O)N(C2CC2)C2CC2)cc2c3c(ncn3C)c(Nc3cc(C)n(C)n3)nc21 [BMS-911543] ?
Response line: 1.1

----------
protocolNotes: Half life in mouse at 2 mg/kg, iv and 10 mg/kg, po
Type: ADME, organism-based
settings: in vivo
parameter: half-life (h)
A number alone suffices; assume h.

Prompt line: Quick one: half-life of CCn1c(C(=O)N(C2CC2)C2CC2)cc2c3c(ncn3C)c(Nc3cc(C)n(C)n3)nc21 ?
Response line: 5.1

----------
assayedTarget: hERG (Homo sapiens)
protocolNotes: Inhibition of human ERG channel at 30 uM
// values below are reported inhibition at 30 µM
A number alone suffices; assume %.

> print(dat)
                                querysmiles  resultvalue
1  CCn1c(C(=O)N(C2CC2)C2CC2)cc2c3c(ncn3C)c(Nc3cc(C)n(C)n3)nc21           20

Next up:
Prompt line: Quick one: inhibition at 30 µM of CCn1nc(Nc2nc3c(cc(C(=O)N(C4CC4)C4CC4)n3CC)c3c2ncn3C)cc1C ?
Response line: 75

----------
protocolNotes: Volume of distribution at steady state in mouse at 2 mg/kg, iv and 10 mg/kg, po
Format: ADME, organism-based
settings: in vivo, read-out: Vdss
parameter: Vd (L/kg)
A number alone suffices; assume L/kg.

Prompt line: Quick one: Vd of CCn1c(C(=O)N(C2CC2)C2CC2)cc2c3c(ncn3C)c(Nc3cc(C)n(C)n3)nc21 ?
Response line: 0.26

----------
assayedTarget: Tyrosine-protein kinase JAK2 (Mus musculus)
Sequence (Q62120 whole entry): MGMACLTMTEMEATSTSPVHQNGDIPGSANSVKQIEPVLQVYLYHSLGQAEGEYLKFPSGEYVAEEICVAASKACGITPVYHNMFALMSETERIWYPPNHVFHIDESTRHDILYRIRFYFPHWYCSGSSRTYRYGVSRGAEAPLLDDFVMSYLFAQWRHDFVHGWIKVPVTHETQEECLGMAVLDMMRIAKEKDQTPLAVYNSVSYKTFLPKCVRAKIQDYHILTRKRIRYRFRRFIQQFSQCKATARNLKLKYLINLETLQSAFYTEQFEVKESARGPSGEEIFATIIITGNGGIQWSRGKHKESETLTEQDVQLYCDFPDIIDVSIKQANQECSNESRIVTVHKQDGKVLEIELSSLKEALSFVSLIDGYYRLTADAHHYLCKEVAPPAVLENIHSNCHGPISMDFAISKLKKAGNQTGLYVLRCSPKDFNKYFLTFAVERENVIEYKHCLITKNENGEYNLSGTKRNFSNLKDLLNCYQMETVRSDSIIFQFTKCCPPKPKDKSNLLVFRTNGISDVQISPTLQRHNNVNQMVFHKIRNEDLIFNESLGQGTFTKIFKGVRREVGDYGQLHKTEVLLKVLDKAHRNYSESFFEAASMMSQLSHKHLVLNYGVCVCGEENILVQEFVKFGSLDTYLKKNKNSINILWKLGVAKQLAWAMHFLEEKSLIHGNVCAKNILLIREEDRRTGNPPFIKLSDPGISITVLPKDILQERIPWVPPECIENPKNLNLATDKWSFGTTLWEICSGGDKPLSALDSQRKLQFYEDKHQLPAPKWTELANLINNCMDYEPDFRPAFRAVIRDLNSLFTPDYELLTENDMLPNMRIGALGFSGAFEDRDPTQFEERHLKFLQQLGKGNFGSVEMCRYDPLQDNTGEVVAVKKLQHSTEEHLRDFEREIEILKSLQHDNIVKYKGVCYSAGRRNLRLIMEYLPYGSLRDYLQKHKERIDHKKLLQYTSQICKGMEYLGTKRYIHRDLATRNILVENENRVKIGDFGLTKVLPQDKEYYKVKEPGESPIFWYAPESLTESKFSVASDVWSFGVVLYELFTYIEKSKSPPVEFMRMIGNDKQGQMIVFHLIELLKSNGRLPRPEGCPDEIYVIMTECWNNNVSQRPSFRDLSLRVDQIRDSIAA
protocolNotes: Inhibition of JAK2 in mouse BAF3 cells assessed as reduction in STAT5 phosphorylation incubated for 2 hrs by Western blot method
parameter: IC50 (nM)
A number alone suffices; assume nM.

Prompt line: Quick one: IC50 of CCn1c(C(=O)N(C2CC2)C2CC2)cc2c3c(ncn3C)c(Nc3cc(C)n(C)n3)nc21 ?
Response line: 65

----------
protocolNotes: Half in rat liver microsomes
Type: ADME
parameter: half-life
Answer format reminder: number followed by unit.

Prompt line: Quick one: half-life of CCn1c(C(=O)N(C2CC2)C2CC2)cc2c3c(ncn3C)c(Nc3cc(C)n(C)n3)nc21 [BMS-911543] ?
Response line: 1.15 h

----------
assayedTarget: Tyrosine-protein kinase JAK3 (Homo sapiens)
Sequence (P52333 whole entry): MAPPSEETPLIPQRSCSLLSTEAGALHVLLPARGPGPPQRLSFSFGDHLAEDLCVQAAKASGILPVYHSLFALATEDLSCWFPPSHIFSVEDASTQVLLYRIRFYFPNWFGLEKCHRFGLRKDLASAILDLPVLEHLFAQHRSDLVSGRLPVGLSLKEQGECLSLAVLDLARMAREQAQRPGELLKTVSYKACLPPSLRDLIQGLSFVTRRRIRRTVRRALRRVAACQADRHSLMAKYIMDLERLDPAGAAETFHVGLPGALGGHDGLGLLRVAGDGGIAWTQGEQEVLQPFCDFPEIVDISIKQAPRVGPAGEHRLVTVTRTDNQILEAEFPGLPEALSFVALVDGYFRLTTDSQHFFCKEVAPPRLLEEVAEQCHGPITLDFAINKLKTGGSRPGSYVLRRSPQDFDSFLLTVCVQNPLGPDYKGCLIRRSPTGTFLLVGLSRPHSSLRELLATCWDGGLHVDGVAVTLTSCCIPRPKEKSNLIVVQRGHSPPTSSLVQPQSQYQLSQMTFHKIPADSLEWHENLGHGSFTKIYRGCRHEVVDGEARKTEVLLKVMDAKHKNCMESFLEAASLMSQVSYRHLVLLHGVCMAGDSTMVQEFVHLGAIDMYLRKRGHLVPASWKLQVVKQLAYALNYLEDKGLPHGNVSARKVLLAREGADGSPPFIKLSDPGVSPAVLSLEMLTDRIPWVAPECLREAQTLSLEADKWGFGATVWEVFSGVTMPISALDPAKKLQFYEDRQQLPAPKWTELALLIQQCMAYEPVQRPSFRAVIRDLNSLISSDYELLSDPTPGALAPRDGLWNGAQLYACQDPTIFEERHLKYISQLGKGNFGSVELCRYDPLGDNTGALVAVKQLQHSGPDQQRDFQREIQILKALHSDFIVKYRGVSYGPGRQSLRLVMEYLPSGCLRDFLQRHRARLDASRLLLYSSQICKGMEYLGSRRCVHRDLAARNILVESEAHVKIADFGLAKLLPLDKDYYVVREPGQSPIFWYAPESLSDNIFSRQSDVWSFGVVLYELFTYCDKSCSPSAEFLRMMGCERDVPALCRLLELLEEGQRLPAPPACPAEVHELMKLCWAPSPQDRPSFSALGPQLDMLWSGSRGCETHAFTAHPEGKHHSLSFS
parameter: pKd
Worth noting: pKd values are minus log10 of concentrations stated in mol/L.

Prompt line: Item CCn1c(C(=O)N(C2CC2)C2CC2)cc2c3c(ncn3C)c(Nc3cc(C)n(C)n3)nc21 with Tyrosine-protein kinase JAK3 (Homo sapiens) - pKd?
Response line: 6.44

----------
// values below are reported IC50
assayedTarget: Tyrosine-protein kinase JAK1 (Homo sapiens)
Sequence (P23458 whole entry): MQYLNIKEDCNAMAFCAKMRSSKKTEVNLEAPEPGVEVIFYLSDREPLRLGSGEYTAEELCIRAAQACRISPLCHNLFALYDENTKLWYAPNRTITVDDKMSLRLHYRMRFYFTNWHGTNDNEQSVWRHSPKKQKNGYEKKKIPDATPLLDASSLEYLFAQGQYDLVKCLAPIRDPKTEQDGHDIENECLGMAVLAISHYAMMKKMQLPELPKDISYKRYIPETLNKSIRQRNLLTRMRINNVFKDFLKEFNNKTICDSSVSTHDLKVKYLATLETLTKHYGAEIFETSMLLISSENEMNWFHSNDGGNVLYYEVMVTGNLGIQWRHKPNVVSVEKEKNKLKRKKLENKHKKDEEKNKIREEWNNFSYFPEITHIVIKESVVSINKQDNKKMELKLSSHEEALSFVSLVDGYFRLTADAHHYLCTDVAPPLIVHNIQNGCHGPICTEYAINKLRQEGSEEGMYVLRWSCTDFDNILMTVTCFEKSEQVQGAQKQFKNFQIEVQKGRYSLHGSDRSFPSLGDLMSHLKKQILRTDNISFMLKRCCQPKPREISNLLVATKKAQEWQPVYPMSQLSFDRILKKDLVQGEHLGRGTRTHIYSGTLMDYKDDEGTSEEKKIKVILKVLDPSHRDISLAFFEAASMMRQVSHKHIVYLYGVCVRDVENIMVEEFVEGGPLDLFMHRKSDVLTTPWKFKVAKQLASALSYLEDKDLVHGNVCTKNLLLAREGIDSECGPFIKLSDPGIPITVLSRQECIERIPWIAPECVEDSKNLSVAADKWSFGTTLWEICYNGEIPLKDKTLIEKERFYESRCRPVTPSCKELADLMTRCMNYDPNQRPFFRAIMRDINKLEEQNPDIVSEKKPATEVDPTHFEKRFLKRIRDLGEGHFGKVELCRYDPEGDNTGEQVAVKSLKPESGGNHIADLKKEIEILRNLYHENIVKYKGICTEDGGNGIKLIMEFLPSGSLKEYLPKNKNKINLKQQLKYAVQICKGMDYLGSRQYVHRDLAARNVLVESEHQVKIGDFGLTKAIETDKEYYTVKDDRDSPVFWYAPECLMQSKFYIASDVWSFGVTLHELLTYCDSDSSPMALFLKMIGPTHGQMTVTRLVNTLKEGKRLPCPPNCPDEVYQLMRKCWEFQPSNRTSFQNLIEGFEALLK
protocolNotes: Inhibition of recombinant JAK1 (unknown origin) using 5-FAM-KKKKEEIYFFFG-OH substrate and ATP incubated for 180 mins by […] method
A number alone suffices; assume nM.

Known IC50 results, listed for orientation:
> print(dat)
                                   molecule  unitssymbol  resultvalue
1  CCn1c(C(=O)N(C2CC2)C2CC2)cc2c3c(ncn3C)c(Nc3cc(C)[nH]n3)nc21           nM           16
2  CCc1nc(Nc2nc3c(cc(C(=O)N(C4CC4)C4CC4)n3CC)c3c2ncn3C)sc1C           nM          250
3  CCn1c(C(=O)N(C2CC2)C2CC2)cc2c3c(ncn3C)c(Nc3cc(C)n(C)n3)nc21 [BMS-911543]           nM           75

Prompt line: Quick one: IC50 of CCn1c(C(=O)N(C2CC2)C2CC2)cc2c3c(ncn3C)c(Nc3nc(C)c(S(C)(=O)=O)s3)nc21 ?
Response line: 40

Prompt line: Quick one: IC50 of CCn1c(C(=O)N(C2CC2)C2CC2)cc2c3c(ncn3C)c(Nc3nc(C)n(C)n3)nc21 ?
Response line: 6000

----------
assayedTarget: Tyrosine-protein kinase JAK3 (Homo sapiens)
protocolNotes: Inhibition of recombinant JAK3 (unknown origin) using 5-FAM-KKKKEEIYFFFG-OH substrate and ATP incubated for 180 mins by […] method
parameter: log10 of IC50 (log10 of the value in µM)
Remember, log10 of IC50, in µM.

Known log10 of IC50 results, listed for orientation:
> print(dat)
                                querysmiles  resultvalue
1  CCn1c(C(=O)N(C2CC2)C2CC2)cc2c3c(ncn3C)c(Nc3cc(C)[nH]n3)nc21        -1.06
2  CCc1nc(Nc2nc3c(cc(C(=O)N(C4CC4)C4CC4)n3CC)c3c2ncn3C)sc1C        -0.34
3  CCn1c(C(=O)N(C2CC2)C2CC2)cc2c3c(ncn3C)c(Nc3nc(C)c(C(=O)N4CCS(=O)(=O)CC4)s3)nc21        -1.51
4  CCn1c(C(=O)N(C2CC2)C2CC2)cc2c3c(ncn3C)c(Nc3cc(C)nn3C)nc21         0.70

Prompt line: Quick one: log10 of IC50 of CCn1c(C(=O)N(C2CC2)C2CC2)cc2c3c(ncn3C)c(Nc3cc(C)n(C)n3)nc21 ?
Response line: -0.44

----------
protocolNotes: Antiproliferative activity against human SET2 cells incubated for 72 hrs by [3H] thymidine incorporation assay
Assay type: functional, cell-based
settings: SET-2
parameter: pIC50
Worth noting: pIC50 values are minus log10 of concentrations stated in mol/L.

Known pIC50 results, listed for orientation:
> print(dat)
                                querysmiles  resultvalue
1  CCn1c(C(=O)N(C2CC2)C2CC2)cc2c3c(ncn3C)c(Nc3nc(C(=O)NC)c(C)s3)nc21         7.00
2  CCc1nc(Nc2nc3c(cc(C(=O)N(C4CC4)C4CC4)n3CC)c3c2ncn3C)sc1C         7.04

Next up:
Prompt line: Quick one: pIC50 of CCn1c(C(=O)N(C2CC2)C2CC2)cc2c3c(ncn3C)c(Nc3nc(C)c(C(=O)NC)s3)nc21 ?
Response line: 6.92
